Attribution: ChEMBL document CHEMBL1156179

target: Adenosine receptor A3 (Homo sapiens); assay: Displacement of [3H]NECA from human cloned adenosine A3 receptor expressed in CHO cells; format: cell-based
Sequence (P0DMS8 whole entry): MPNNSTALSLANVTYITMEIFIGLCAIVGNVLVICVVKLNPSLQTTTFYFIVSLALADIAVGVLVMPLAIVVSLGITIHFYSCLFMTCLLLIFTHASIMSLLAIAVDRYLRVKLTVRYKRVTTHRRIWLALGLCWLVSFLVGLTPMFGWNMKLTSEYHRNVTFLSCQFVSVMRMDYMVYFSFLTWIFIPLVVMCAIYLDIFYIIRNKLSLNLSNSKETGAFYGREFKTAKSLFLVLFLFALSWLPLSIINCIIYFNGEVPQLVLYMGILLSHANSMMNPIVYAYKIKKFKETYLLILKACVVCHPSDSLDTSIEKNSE
pKi: −log10 of the molar value.
pKi vs 8: at or above is TRUE, below is FALSE.

INSERT INTO assay_data (smiles_entry, category_label) VALUES
  ('Cn1cc2c(nc(NC(=O)c3ccccc3)n3nc(-c4ccc(F)cc4)nc23)n1', 'TRUE'),
  ('Cn1cc2c(nc(NC(=O)Cc3ccccc3)n3nc(-c4ccc(Cl)cc4)nc23)n1', 'TRUE'),
  ('O=C(Nc1nc2nn(CCc3ccccc3)cc2c2nc(-c3ccc(Br)cc3)nn12)c1ccccc1', 'FALSE'),
  ('Cn1cc2c(nc(N)n3nc(-c4ccc(Br)cc4)nc23)n1', 'FALSE'),
  ('COc1ccc(-c2nc3c4cn(C)nc4nc(NC(=O)Cc4ccccc4)n3n2)cc1', 'TRUE'),
  ('Cn1cc2c(nc(NC(=O)c3ccccc3)n3nc(-c4ccccc4)nc23)n1', 'TRUE'),
  ('COc1ccc(-c2nc3c4cn(C)nc4nc(NC(=O)c4ccccc4)n3n2)cc1', 'TRUE'),
  ('Cn1cc2c(nc(NC(=O)c3ccccc3)n3nc(-c4ccc([N+](=O)[O-])cc4)nc23)n1', 'FALSE'),
  ('Cn1cc2c(nc(NC(=O)Cc3ccccc3)n3nc(-c4ccc(F)cc4)nc23)n1', 'TRUE'),
  ('Cn1cc2c(nc(N)n3nc(-c4ccc([N+](=O)[O-])cc4)nc23)n1', 'FALSE');
